meta.source: patent US20090227563A1

- System: Avena fatua (AVEFA)
- Procedure summary: Glasshouse trial on activity boost, post-emergence spraying, visual rating
- Type: in vivo
- Recorded conditions: 25 g/ha, RME (0.25%) + AMS (3.3 g/l)
Quantity: Activity (%)
Answers are plain numbers, in %.

See these solved cases before continuing.
[
  {
    "Compound": "CCc1cc(Cl)ccc1C1=C(OC(=O)C(C)C)C2(CCC(C)CC2)NC1=O (centres unmarked)",
    "Measurement target": "Avena fatua (AVEFA)",
    "Quantitative result": 60
  },
  {
    "Compound": "CCc1cc(C)cc(CC)c1C1C(=O)[C@H]2CCCC[C@@H]2C1=O",
    "Measurement target": "Avena fatua (AVEFA)",
    "Quantitative result": 99
  },
  {
    "Compound": "CCc1cc(Cl)cc(OC)c1-c1c(O)n2n(c1=O)CCCC2",
    "Measurement target": "Avena fatua (AVEFA)",
    "Quantitative result": 80
  }
]

Give Activity for each listed item.
1. CCc1cccc(CC)c1C1=C(O)[C@]2(CC[C@H](OC)CC2)NC1=O
2. CCc1cc(C)cc(CC)c1-c1c(OC(=O)C(C)(C)C)n2n(c1=O)CCOCC2

Key:
1. 10
2. 80

###

- System: Lolium multiflorum (LOLMU)
- Procedure summary: Glasshouse trial on activity boost, post-emergence spraying, visual rating
- Assay type: in vivo
- Recorded conditions: 25 g/ha, RME (0.25%)
Exercise: state measured Activity for each of the molecules provided.
I'd appreciate it if you wrote the number followed by its unit.

These solved cases illustrate the format of a correct answer.
[
  {
    "Molecule": "CCc1cc(Cl)cc(OC)c1-c1c(O)n2n(c1=O)CCCC2",
    "Activity": "80%"
  },
  {
    "Molecule": "CCc1cc(-c2ccc(Cl)cc2)cc(C)c1C1=C(O)C2(CCC(OC)CC2)OC1=O (stereo not drawn)",
    "Activity": "30%"
  },
  {
    "Molecule": "CCc1cccc(CC)c1C1=C(O)[C@]2(CC[C@H](OC)CC2)NC1=O",
    "Activity": "2%"
  },
  {
    "Molecule": "CCc1cc(Cl)ccc1C1=C(OC(=O)C(C)C)C2(CCC(C)CC2)NC1=O (stereo not drawn)",
    "Activity": "10%"
  },
  {
    "Molecule": "CCc1cc(C)cc(CC)c1-c1c(OC(=O)C(C)(C)C)n2n(c1=O)CCOCC2",
    "Activity": "60%"
  }
]

Kindly review the next molecule as well.
Exercise: Requested read-out: Activity. Entry: CCc1cc(C)cc(CC)c1C1C(=O)[C@H]2CCCC[C@@H]2C1=O
Key: 20%

###

I'd appreciate it if you could supply Activity values for the items below.
- Test system: Setaria viridis (SETVI)
- Procedure summary: Glasshouse trial on activity boost, post-emergence spraying, visual rating
- Type: in vivo
- Recorded conditions: 50 g/ha, RME (0.25%)
Answers are plain numbers, in %.

Use the examples below as a reference point.
[
  {
    "Molecule": "CCc1cc(Br)cc(Cl)c1C1=C(O)C(C)(C2CC2)NC1=O (centres unmarked) [I-1-a-2]",
    "Quantitative result": 50
  },
  {
    "Molecule": "CCc1cc(Br)cc(C)c1C1=C(O)C2(CCC(OC)CC2)NC1=O (centres unmarked) [I-1-a-1]",
    "Quantitative result": 40
  },
  {
    "Molecule": "CC1=CC(=O)C(c2c(C)cc(C)cc2C)C(=O)O1 (centres unmarked) [I-4-a-1]",
    "Quantitative result": 0
  },
  {
    "Molecule": "CCc1cc(C)cc(OC)c1C1=C(O)C2CCCN2C1=O (centres unmarked) [I-1-a-3]",
    "Quantitative result": 93
  }
]

Then there is this molecule:
Exercise: Endpoint output: Activity of CCc1cc(C)cc(C)c1C1C(=O)CC2(CCCCC2)C1=O (centres unmarked) [I-6-a-1] . Value?
Key: 25
